Molecular target: T1, human BCMA on BCMA expressing cell lines (human, UniProt Q02223 1-184)
T1 sequence: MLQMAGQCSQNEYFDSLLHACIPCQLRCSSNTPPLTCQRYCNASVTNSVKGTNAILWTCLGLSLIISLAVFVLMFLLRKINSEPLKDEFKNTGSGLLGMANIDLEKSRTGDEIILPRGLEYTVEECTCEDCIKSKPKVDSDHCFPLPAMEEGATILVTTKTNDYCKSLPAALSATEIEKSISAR
Test: cell-based or functional assay
This section presents binders with their documented TDCC EC50 (EJM cells) values.

Please review the following examples before continuing.
BCMA targeting trispecific protein 02C03 (other, trispecific; not shown: the C-terminal His6 follows those missing domains and is left out) VHH: EVQLVESGGGLVQPGRSLTLSCAASTNIASISPMGWYRQAPGKQRELVAAIHGSSTLYADSVKGRFTISRDNAKNSIYLQMNSLRPEDTALYYCNKVPWGDYHPGNVYWGQGTQVTVSS : 2.52 pM
BCMA targeting trispecific protein 02A05 (other, not shown: large carriers; small tags and cut ends, trispecific) VHH: EVQLVESGGGLVQPGRSLTLSCAASTNIASISPMGWYRQAPGKQRELVAAIHGKSTLYADSVKGRFTISRDNAKNSIYLQMNSLRPEDTALYYCNKVPWGDYHPGNVYWGQGTQVTVSS : 4.21 pM
BCMA targeting trispecific protein 01G09 (other, trispecific; not shown: anti-albumin domain, anti-CD3 domain and the linkers of the trispecific; the C-terminal His6 that follows them is left out) VHH: EVQLVESGGGLVQPGRSLTLSCAASTNIFNISPMGWYRQAPGKQRELVAAIHGFSTYYADSVKGRFTISRDNAKNSIYLQMNSLRPEDTALYYCNKVPWGRYHPRNVYWGQGTQVTVSS : 441 pM

Turning now to a further binder:
Ask | Quick check: TDCC EC50 (EJM cells) of BCMA targeting trispecific protein 01C10 (other, not shown: large carriers; small tags and cut ends, trispecific) VHH: EVQLVESGGGLVQPGRSLTLSCAASTNISSISPMGWYRQAPGKQRELVAAIHGFSTLYADSVKGRFTISRDNAKNSIYLQMNSLRPEDTALYYCNKVPWGYYHPRNVYWGQGTQVTVSS ?
Reply | 208 pM
